Assay: Single-dose and steady-state serum pharmacokinetics in the murine model
Format: in vivo, mice
Settings: mouse, serum, po, 130 mg/kg, serum, Day 1, LZD 130 mg/kg daily oral; read-out: Cmax

Compound: CC(=O)NC[C@H]1CN(c2ccc(N3CCOCC3)c(F)c2)C(=O)O1 [LZD, linezolid]
Cmax, µg/mL: 64.9

----------
Experiment: Single-dose and steady-state serum pharmacokinetics in the murine model
Assay type: in vivo, mice
Conditions: mouse, serum, po, 130 mg/kg, serum, Day 24, LZD 130 mg/kg daily oral; read-out: Cmax

Smiles Record: CC(=O)NC[C@H]1CN(c2ccc(N3CCOCC3)c(F)c2)C(=O)O1
Readout Unit: µg/mL
Cmax: 58.4
